Test: NCI Yeast Anticancer Drug Screen. Data for the sgs1 mgt1 strain (AID 161);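 further: 0% = growth of cultures given vehicle only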
Settings: S. cerevisiae sgs1 mgt1 strain, at 50.0 µM
This is part of a sample that, as a whole, favours compounds with a hit. Of some 79,000 tested, about 15% had one in any assay. Calls of active or inactive are those of the source. No stated cut-off is given here; in the data, active means growth inhibition above about 70%; inactive means the rest.
Classes used: active, inactive

- C/C(=N/NC(=S)NNC(=S)N(C)c1ccccc1)c1nccc2ccccc12: active
- S=c1nc[nH]c2c1ncn2C1OC(COCc2ccccc2)C(OCc2ccccc2)C1OCc1ccccc1 (stereo not drawn): inactive
- Cc1cc(OCCBr)ccc1[N+](=O)[O-]: inactive

---

Assay: NCI Yeast Anticancer Drug Screen. Data for the sgs1 mgt1 strain (AID 161);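 further: 0% = growth of cultures given vehicle only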
Details: S. cerevisiae sgs1 mgt1 strain, at 50.0 µM, stronger effect = higher value
This is part of a sample that, as a whole, favours compounds with a hit. Of some 79,000 tested, about 15% had one in any assay.
measurementKind: growth inhibition (%)

- N#C/C(=C\c1ccco1)C(N)=O: -14.6
- c1ccc(-c2nc(-c3ccccc3)c(-c3ccccc3)[nH]2)cc1: 12.2
- CCOC(=O)Cc1nnc2n(-c3ccccc3)c(=O)c3ccccc3n12: -21.7
- NC(=S)C(=S)NCCO: -5.7
- OC(c1ccccc1)C(Cc1ccccc1)N1CCCCC1 (configuration not stated): 23.2
- CCCOc1ccccc1C(=O)N1CCOCC1: 7.8
- C/C(=N\NC(=S)NC(C)C)c1nc2ncccc2[nH]1: -56.6
- O=C(Nc1cccc2ccccc12)c1ccccc1: -0.25
- CC1=Nc2nc3ccccc3n2C(C)(C)C1: 11.6
- COc1ccc(/C=C2\CCC(Cc3ccccc3)(CN(C)C)C2=O)cc1 (configuration not stated): 25.3
- CCCC(C)C1CCC(=O)CC1 (configuration not stated): 0.75
- CC/C=C(\C)C(C#N)(CC)C(=O)OCC (configuration not stated): -4.6
- COC1OC(COC(c2ccccc2)(c2ccccc2)c2ccccc2)C2OC12 (configuration not stated): 22.6
- CC(C)NC(=O)NCCc1c[nH]c2ccccc12: 1.85
- O=C(Oc1ccccc1)Oc1c(Cl)cc([N+](=O)[O-])cc1[N+](=O)[O-]: 5.25
- c1ccc(C2CN3CCSC3=N2)cc1 (configuration not stated): -19.1
- C=CCC(C(=O)O)c1ccccc1 (configuration not stated): -5.2
